System: Nuclear hormone receptor DAF-12 (Heterodera glycines), GAL4 fusion
Test: H. glycines DAF-12 receptor agonists, primary screen, cell-based, luminescence, HEK293, GAL4 fusion, UAS-luciferase (AID 687014);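 further: 0% = DMSO wells and 100% = sodium butyrate wells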
Settings: HEK293 GAL4-hgDAF12 UAS-luciferase reporter, agonist luminescence; at 6.8 µM; normalized to butyrate control
Screen size: about 370,000 compounds; about 6,800 (1.8%) were called active.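 How the source made its calls: active means activation above a cutoff set at the mean of all screened compounds plus 3 SD (cut at about 10% in these data); inactive means the rest.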 The sample holds actives, similar compounds and a random draw of the others, so the mix is not that of the screen.
Output constraint: value belongs to label 1 for active, label 0 for inactive

These recorded examples may help you get a feel for the data.
COc1ccc(C2COC(=O)C2=N)c(NC(=O)c2ccccc2)c1 (stereo unspecified) | label 0
O=C(Nc1ccccc1)c1ccc2c(c1)OCCCO2 | label 1
C=CCN1C(=O)[C@@H](CC(=O)N2CCN(C(=O)c3ccco3)CC2)[C@]2(C(=O)OC)CCCCC=C12 | label 0
O=C(Nc1ccccc1F)c1ccc2c(c1)OCO2 | label 1
O=C(Oc1cccc(NC2=NS(=O)(=O)c3ccccc32)c1)c1ccncc1 | label 0

Ask | Hi, sorry to bother you, what did the test record for CC(C)(C)c1csc(NC2=NS(=O)(=O)c3ccccc32)n1 ?
Reply | label 1

Ask | For this molecule, state the assay outcome: O=C(NCCc1ccc(C(F)(F)F)cc1)c1ccc2c(c1)OCO2
Reply | label 0

Ask | Assay outcome for Cc1ccc(S(=O)(=O)N(NC2=NS(=O)(=O)c3ccccc32)C(=O)c2ccccc2)cc1 : what was it?
Reply | label 0

Ask | Fill in: this test's call for COc1cccc(C(=O)Nc2cc3c(cc2Br)OCCCO3)c1 is ___
Reply | label 1

Ask | Field: outcome | Entry: O=C(CN1CCc2cc3c(cc2C1)OCCCO3)Nc1ccccc1
Reply | label 0

Ask | For COc1cccc(C(=O)Nc2nnc(S(=O)(=O)N3CCOCC3)s2)c1 , which call appears in the assay record?
Reply | label 0
